Tested on: crabgrass
assay-protocol: Test B pre/postemergence crabgrass
Type: in vivo, Digitaria sanguinalis
condition-info: Preemergence, Rate 125 g/ha; 0 is no effect, 10 is complete control
measured-metric: Crabgrass plant response rating (0 to 10 scale)
Enter a number only.

compound	reported
CC(C)N(C(=O)n1oc(=O)n([C@@H](C)c2ccccc2)c1=O)c1ccccc1 [Compound 173]	6
CCN(Cc1ccncc1)C(=O)n1oc(=O)n(C(C)C)c1=O [Compound 189]	0
CC(C)N(C(=O)n1oc(=O)n(C(C)c2ccccc2)c1=O)c1ccc(Cl)cc1 (stereo not shown) [Compound 133]	3
CCN(C(=O)n1oc(=O)n(C(C)C)c1=O)c1nncs1 [Compound 190]	0
CC(C)N(C(=O)n1oc(=O)n(C)c1=O)c1ccc(Cl)cc1 [Compound 137]	10

**Query** # get_value(readout='Crabgrass plant response rating (0 to 10 scale)', item= CCN(C(=O)n1oc(=O)n(N(C)c2ccccc2)c1=O)C1CCCCC1 [Compound 183] )
**Result** 0

**Query** Would you mind doing Cc1nc(C)c(-n2c(=O)on(C(=O)N(c3ccccc3)C(C)C)c2=O)s1 [Compound 197] as well?
**Result** 0

----------
Examples of compounds with documented Rape plant response rating follow.
Tested on: rape
assay-protocol: Test B pre/postemergence rape
Assay type: in vivo, Brassica napus
condition-info: Preemergence, Rate 250 g/ha; scale 0 to 10, 0 is no effect, 10 is complete control

Solved cases (3 shown):
compound	reported
CC(C)N(C(=O)n1oc(=O)n(N(C)c2ccccc2)c1=O)c1ccc(F)cc1	0
COc1ccccc1Cn1c(=O)on(C(=O)N(c2ccc(F)cc2)C(C)C)c1=O	4
CC1CC1Cn1c(=O)on(C(=O)N(c2ccc(F)cc2)C(C)C)c1=O (stereo not shown)	5

Read the next record carefully.
**Query** # get_value(readout='Rape plant response rating', item= CC(C)C(=O)Cn1c(=O)on(C(=O)N(c2ccc(F)cc2F)C(C)C)c1=O )
**Result** 6

----------
System: giant foxtail
assay-protocol: Test B pre/postemergence giant foxtail
Format: in vivo, Setaria faberii
condition-info: Preemergence, Rate 250 g/ha; scale 0 to 10, 0 is no effect, 10 is complete control
measured-metric: Giant foxtail plant response rating

**Query** # get_value(readout='Giant foxtail plant response rating', item= CC(C)C(=O)Cn1c(=O)on(C(=O)N(c2ccc(F)cc2F)C(C)C)c1=O )
**Result** 10

**Query** Would you mind doing CCN(C(=O)n1oc(=O)n(C(C)C)c1=O)c1nncs1 as well?
**Result** 0

**Query** Would you mind doing CC[Si](C)(C)Cn1c(=O)on(C(=O)N(c2ccc(F)cc2)C(C)C)c1=O as well?
**Result** 10

**Query** Would you mind doing C=C(C)CCn1c(=O)on(C(=O)N(c2ccccc2)C(C)C)c1=O as well?
**Result** 10

**Query** Would you mind doing CC(C)N(C(=O)n1oc(=O)n(N(C)c2ccccc2)c1=O)c1ccc(F)cc1 as well?
**Result** 10

**Query** Would you mind doing Cc1nc(Cl)sc1C(C)n1c(=O)on(C(=O)N(c2ccccc2)C(C)C)c1=O (stereo not drawn) as well?
**Result** 9

**Query** Would you mind doing C=CC(OC)n1c(=O)on(C(=O)N(c2ccc(F)cc2)C(C)C)c1=O (stereo not drawn) as well?
**Result** 4

**Query** Would you mind doing CC(C)N(C(=O)n1oc(=O)n(CC2CCC2)c1=O)c1ccc(F)cc1 as well?
**Result** 10

**Query** Would you mind doing CC(C)N(C(=O)n1oc(=O)[nH]c1=O)c1ccc(F)cc1 as well?
**Result** 0

----------
System: pigweed
assay-protocol: Test B pre/postemergence pigweed
Assay type: in vivo, Amaranthus retroflexus
condition-info: Preemergence, Rate 250 g/ha; scale 0 to 10 (0 no effect, 10 complete control)
Examples of molecules with documented Plant response rating, Redroot pigweed follow.
Enter a number only.

Solved cases (4 shown):
sample-smiles	Plant response rating, Redroot pigweed
CCOC(Cn1c(=O)on(C(=O)N(c2ccc(F)cc2)C(C)C)c1=O)OCC	10
CCOC(Cn1c(=O)on(C(=O)N(c2ccc(Cl)cc2)C(C)C)c1=O)OCC	2
CC(C)N(C(=O)n1oc(=O)n(CC(=O)C2CCC2)c1=O)c1ccc(F)cc1	2
CCOC(Cn1c(=O)on(C(=O)N(c2ccc(F)cc2F)C(C)C)c1=O)OCC	10

**Query** # get_value(readout='Plant response rating, Redroot pigweed', item= CC(C)N(C(=O)n1oc(=O)n(Cc2nnc(Cl)s2)c1=O)c1ccc(Cl)cc1 )
**Result** 0

----------
Examples of molecules with documented Sugarbeets plant response rating follow.
System: sugar beet
assay-protocol: Test B pre/postemergence sugar beet
Type: in vivo, Beta vulgaris
condition-info: Rate 125 g/ha; Preemergence; scale of 0 to 10 where 0 is no effect and 10 is complete control
Enter a number only.

sample-smiles	reported
CCC=CCn1c(=O)on(C(=O)N(c2ccc(F)cc2)C(C)C)c1=O	0

**Query** # get_value(readout='Sugarbeets plant response rating', item= CC(=O)OCn1c(=O)on(C(=O)N(c2ccc(F)cc2)C(C)C)c1=O )
**Result** 0

**Query** Would you mind doing CC(C)N(C(=O)n1oc(=O)n(CC(C)(C)C)c1=O)c1ccccc1 as well?
**Result** 1

**Query** Would you mind doing CCN(C(=O)n1oc(=O)n(N(C)C)c1=O)C1CCCCC1 as well?
**Result** 0

----------
Examples of compounds with documented Corn plant response rating follow.
Tested on: corn
assay-protocol: Test B pre/postemergence corn
Assay type: in vivo, Zea mays
condition-info: Preemergence, Rate 250 g/ha; scale 0 (no effect) to 10 (complete control)
Enter a number only.

Solved cases (2 shown):
compound	Corn plant response rating
CC(C)N(C(=O)n1oc(=O)n(CC(F)F)c1=O)c1ccc(Cl)cc1 [Compound 745]	2
CC(C)N(C(=O)n1oc(=O)n(CF)c1=O)c1ccc(F)cc1 [Compound 709]	0

**Query** # get_value(readout='Corn plant response rating', item= CC(C)N(C(=O)n1oc(=O)n(CCN(C)C(=O)c2ccccc2)c1=O)c1ccccc1 [Compound 761] )
**Result** 0

----------
Examples of compounds with documented Redroot pigweed plant response rating follow.
System: pigweed
assay-protocol: Test B pre/postemergence pigweed
Assay type: in vivo, Amaranthus retroflexus
condition-info: Preemergence, Rate 62 g/ha; scale of 0 to 10 where 0 is no effect and 10 is complete control
Enter a number only.

Solved cases (2 shown):
compound	reported
CCN(Cc1ccncc1)C(=O)n1oc(=O)n(C(C)C)c1=O [Compound 189]	0
CC(C)N(C(=O)n1oc(=O)n(C(C)C2CC2)c1=O)c1ccccc1 (stereo not drawn) [Compound 699]	3

Read the next record carefully.
**Query** # get_value(readout='Redroot pigweed plant response rating', item= CC(C)N(C(=O)n1oc(=O)n(Cc2nnc(Cl)s2)c1=O)c1ccc(F)cc1 [Compound 646] )
**Result** 0

----------
Examples of compounds with documented Plant response rating, B. signalgrass follow.
Tested on: surinam grass
assay-protocol: Test B pre/postemergence surinam grass
Assay type: in vivo, Brachiaria decumbens
condition-info: Preemergence, Rate 250 g/ha; scale of 0 to 10 where 0 is no effect and 10 is complete control
Enter a number only.

**Query** # get_value(readout='Plant response rating, B. signalgrass', item= CC(C)N(C(=O)n1oc(=O)n(-c2ccc(Cl)cc2C(F)(F)F)c1=O)c1ccc(F)cc1 )
**Result** 0

**Query** Would you mind doing CC(C)N(C(=O)n1oc(=O)n(-c2cc(Cl)ccc2Cl)c1=O)c1ccc(F)cc1 as well?
**Result** 0

**Query** Would you mind doing CC(C)N(C(=O)n1oc(=O)n(C(C)C)c1=O)c1ccc(F)cc1F as well?
**Result** 10

**Query** Would you mind doing Cc1ccccc1-n1c(=O)on(C(=O)N(c2cc(OC(C)C)c(Cl)cc2Cl)C(C)C)c1=O as well?
**Result** 0

----------
Examples of compounds with documented Plant response rating, Wild oats follow.
Tested on: wild oat
assay-protocol: Test B pre/postemergence wild oat
Assay type: in vivo, Avena fatua
condition-info: Preemergence, Rate 125 g/ha; scale of 0 to 10 where 0 is no effect and 10 is complete control
Enter a number only.

Solved cases (2 shown):
compound	Plant response rating, Wild oats
CCOC(=O)CC(C(=O)OCC)n1c(=O)on(C(=O)N(c2ccc(Cl)cc2)C(C)C)c1=O (stereo not drawn)	0
CCC=CCn1c(=O)on(C(=O)N(c2ccccc2)C(C)C)c1=O	0

**Query** # get_value(readout='Plant response rating, Wild oats', item= CC(C)N(C(=O)n1oc(=O)n(CCCCl)c1=O)c1ccccc1 )
**Result** 5

**Query** Would you mind doing CC(C)N(C(=O)n1oc(=O)n(C(C)C2=NOCC2)c1=O)c1ccc(Cl)cc1 (racemic) as well?
**Result** 4

**Query** Would you mind doing C=C(C)CCn1c(=O)on(C(=O)N(c2ccccc2)C(C)C)c1=O as well?
**Result** 0

**Query** Would you mind doing CC[Si](C)(C)Cn1c(=O)on(C(=O)N(c2ccc(F)cc2)C(C)C)c1=O as well?
**Result** 0

**Query** Would you mind doing CCn1ncc(Cn2c(=O)on(C(=O)N(c3ccccc3)C(C)C)c2=O)c1Cl as well?
**Result** 0

**Query** Would you mind doing CC(C)N(C(=O)n1oc(=O)n(COCC[Si](C)(C)C)c1=O)c1ccc(Cl)cc1 as well?
**Result** 0

**Query** Would you mind doing CC(C)N(C(=O)n1oc(=O)n(C(CF)CF)c1=O)c1ccc(F)cc1 as well?
**Result** 6
